All figures here come from paper PMC3262757.

- Test system: JNK1
- Type: cell-based
TEST READOUT: IC50

The molecule identified as "CCOc1nc(NC(=O)Cc2cc(OC)c(NC(C)=O)cc2OC)cc(N)c1C#N" registered its IC50 at ~1.5 µM
